Here, each record is paired with measured IC50 data.
target: Pancreatic triacylglycerol lipase (Homo sapiens)
Sequence (P16233 whole entry): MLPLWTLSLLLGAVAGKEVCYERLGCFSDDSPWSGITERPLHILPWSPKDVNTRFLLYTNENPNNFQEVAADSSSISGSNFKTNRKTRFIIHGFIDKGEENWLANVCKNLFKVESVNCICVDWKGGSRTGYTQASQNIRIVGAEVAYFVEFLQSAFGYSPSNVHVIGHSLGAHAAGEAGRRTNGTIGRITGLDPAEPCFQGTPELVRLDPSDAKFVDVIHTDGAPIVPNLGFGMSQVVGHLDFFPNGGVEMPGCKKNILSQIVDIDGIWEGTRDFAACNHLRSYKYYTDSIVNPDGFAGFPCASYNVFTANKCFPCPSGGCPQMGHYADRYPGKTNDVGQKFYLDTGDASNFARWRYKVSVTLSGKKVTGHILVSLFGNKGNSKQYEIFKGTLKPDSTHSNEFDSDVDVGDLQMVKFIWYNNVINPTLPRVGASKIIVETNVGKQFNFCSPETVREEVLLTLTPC

CSc1nc(-c2ccc(OC(F)(F)F)cc2)nn1C(=O)N(C)c1ccccc1    > 50 µM
CCOc1nn(-c2cccc(OCc3ccccc3)c2)c(=O)o1    > 10 µM
CN(C(=O)n1nc(-c2ccc(Cl)cc2)nc1SCC(F)(F)F)c1ccccc1    > 50 µM

IC50 of COc1nn(-c2ccc(NC(=O)c3ccc(C(C)(C)C)cc3)cc2)c(=O)o1 on Pancreatic triacylglycerol lipase (Homo sapiens)?
> 10 µM

What do you have for Cc1c(C(C)C)c(=O)on1C(=O)N1CCC[C@H](C)C1 ?
> 50 µM
